Tested on: HT29 colon
assay_text: NCI tumour cell line growth inhibition, 48 h
Below is a list of entries, each paired with its recorded TGI value.

Previously resolved entries follow.
O=C(CC1(O)C(=O)Nc2c(Cl)ccc(Cl)c21)c1ccc(Cl)cc1 (configuration not stated) : 73.2 µM
COC(=O)C(=O)C(C(=O)C(=O)Nc1cccc(OC)c1)c1nc2ccc(Cl)cc2[nH]c1=O (configuration not stated) : > 100 µM
C=C(C)c1nc(Oc2ccccc2)nc(Oc2ccccc2)n1 : 12.9 µM
CCCCCCCCCCN=C(N)c1ccc(N2CCN(c3ccc(C(N)=NCCCCCCCCCC)cc3)CC2)cc1 : > 50 µM
Cc1nn(C(=O)Cc2ccccc2)c2c1C(c1ccc(/C=C/c3ccccc3)cc1)SC(N)=N2 (configuration not stated) : > 100 µM
O=C(Nc1ccc(Cl)cc1Cl)C1C(=O)OC2(CCCCC2)OC1=O : 25 µM
N#C[Se]CCN1C(=O)c2ccccc2C1=O : 8.29 µM
N#Cc1c(CC(=O)O)cc(=O)n2c1[nH]c1ccccc12 : > 100 µM
COc1ccc(C(C)Nc2cc(OC)c(OC)c(OC)c2)cc1 (configuration not stated) : > 100 µM
Fc1ccc2c(c1)SC1=Nc3sc4cc(F)ccc4[n+]3CN12 : > 100 µM

// recorded TGI for NS(=O)(=O)c1cc2c(cc1Cl)NCNS2(=O)=O : > 100 µM

Noted for CN(C)[C@@H]1C(=O)C(C(=O)NCc2nc3[nH]cnc(=S)c3[nH]2)=C(O)[C@@]2(O)C(=O)C3=C(O)c4c(O)cccc4[C@@](C)(O)[C@H]3C[C@@H]12 : its TGI reads > 100 µM

----------
System: HCC-2998 colon
assay_text: NCI tumour cell line growth inhibition, 48 h
Listed next: entries and their corresponding TGI.

Use the examples below as a reference point.
CS(=O)(=O)CCC1CCC(=O)O1 (configuration not stated) : > 100 µM
COc1cc(/C=C/c2cc(/C=C/c3ccc(O)c(OC)c3)n(C(=O)Nc3ccc(C)cc3)n2)ccc1O : 9.46 µM

Lookup result for N#CCC(=O)N/N=C\C(O)C(O)C(O)C(O)CO (configuration not stated) ; measured TGI: > 100 µM

Lab book: TGI of O=C(NC1CCCCC1)c1n[nH]nc1Cl noted as > 100 µM

So, O=C1c2ccccc2-c2c1c1c(O)cccc1n2Cc1ccccc1 ? Its TGI was 39.1 µM

The value of TGI measured for the compound COc1ccc(C(C)Nc2cc(OC)c(OC)c(OC)c2)cc1 (configuration not stated) turned out to be > 72.2 µM

The compound listed as Fc1ccc2c(c1)SC1=Nc3sc4cc(F)ccc4[n+]3CN12 shows TGI equal to 47.5 µM

Quick note, TGI for C#CCCCCCC(=O)N[C@H]1C=C[C@@H]2/C=C(C)/C=C/[C@@H](C)[C@H]([C@H](C)[C@H](O)[C@@H](C)NC(C)=O)OC(=O)/C=C/C=C(C)\C=C\[C@]2(C)C1 landed at > 40 µM

compound Cc1ccccc1NC(=O)CC(=O)NNCC(=O)Nc1nnc(-c2ccccc2)s1 , TGI observed: > 100 µM

Sample O=C1NC(c2ccccc2Cl)Nc2ccccc21 (configuration not stated) ; TGI observed: > 100 µM

What the record says about O=c1c(Oc2ccc(F)cc2F)cc2cnc(NC3CCOCC3)nc2n1C1CC1 : TGI is > 25 µM

The reported TGI of the compound CCOC(=O)C1C(NC(N)=O)N(Cc2ccccc2)C(=O)N1Cc1ccccc1 (configuration not stated) was > 100 µM

----------
System: SW-620 colon
assay_text: NCI tumour cell line growth inhibition, 48 h; in the data active = GI50 below about 0.43 µM; inactive = the rest
Your reply should match one of these outcome classes. active, inactive

Field: example entries. Status: answers known.
N#CC1=C(N)Oc2c(ccc3ccccc23)C1c1cc2ccccc2n2nnnc12 (centres undefined) : inactive
COc1cc(/C=C/c2cc(/C=C/c3ccc(O)c(OC)c3)n(C(=O)Nc3ccc(C)cc3)n2)ccc1O : inactive
COc1ccc(-c2c(Nc3ccccn3)nc3c(C4=CCCCC4)c(-c4ccccc4)[nH]n3c2=O)cc1 : inactive
CC(=O)O[C@H]1C[C@@H]2[C@@]3(C)CC[C@H]4C[C@@]4(C)[C@@H]3CC[C@@]2(C)C2=CCC3=C(COC3=O)[C@]21C : inactive
Cn1cc(-c2ccc3c(c2)ncn3-c2cc(NS(=O)(=O)C3CC3)cc(-c3ccc(F)cc3F)c2)cn1 : inactive
CN(C)[C@@H]1C(=O)C(C(=O)NCc2nc3[nH]cnc(=S)c3[nH]2)=C(O)[C@@]2(O)C(=O)C3=C(O)c4c(O)cccc4[C@@](C)(O)[C@H]3C[C@@H]12 : inactive

Q: Answer briefly: the call reported for CCOC(=O)c1c(Cl)c2c(n1Cc1ccccc1)-c1oncc1CCC2 in this assay.
A: inactive

Q: In this assay, the call recorded for O=C1NC(=O)N(S(=O)(=O)c2cc(C(=O)Nc3ccc(Cl)cc3)c(Cl)cc2S)S(=O)(=O)N1 was what?
A: inactive

Q: Can you look up the reported call for C#CCCCCCC(=O)N[C@H]1C=C[C@@H]2/C=C(C)/C=C/[C@@H](C)[C@H]([C@H](C)[C@H](O)[C@@H](C)NC(C)=O)OC(=O)/C=C/C=C(C)\C=C\[C@]2(C)C1 for me?
A: active

Q: For c1cc(OCCCCCOc2cccc(-c3nc4ccccc4[nH]3)c2)cc(-c2nc3ccccc3[nH]2)c1 , which call appears in the assay record?
A: inactive

Q: Recorded test outcome, item CNCc1cccc2c1OCCOCCOCCNS(=O)(=O)c1ccc(cc1)-c1cnc(N)c(n1)C(=O)N2
A: inactive

----------
System: HL-60(TB) leukemia
assay_text: NCI tumour cell line growth inhibition, 48 h
parameter: TGI (µM)
API: value field is a number in µM; no unit string.

Here are 8 compounds together with their reported answers.
Nc1ccccc1C(=O)/C=C/c1ccccc1O : 58.8
O=C(c1c(F)c(F)c(F)c(F)c1F)n1c(=S)n(C(=O)c2c(F)c(F)c(F)c(F)c2F)c2ccccc21 : 45.6
CN1CCN(C(=O)/C=C/c2ccc([N+](=O)[O-])o2)CC1 : 34
O=C(NO)c1ccc(CNc2cccc3nc(C4CC4)n(-c4ccccc4)c(=O)c23)cc1 : 5.64
CN(C)c1ccc(/C=C2\CCc3ccccc3C2=O)cc1Br : 58.5
O=C1[C@H](Cc2ccc(O)cc2)N2C(=O)CCN(C(=O)NCc3ccccc3)[C@H]2CN1Cc1cccc2ccccc12 : 27.3
C/C(=C\c1csc(C)n1)[C@@H]1C[C@@H]2O[C@]2(C)CCC[C@H](C)[C@H](O)[C@@H](C)C(=O)C(C)(C)[C@@H](O)CC(=O)N1 : 0.000163
C[C@H]1CCC/C=C/[C@@H]2C[C@H](OC(=O)CN(C)C)C[C@H]2[C@H](O)/C=C/C(=O)O1 : 6.2

So for CN(C)CCNC(=O)c1cccc2c1nc(-c1cccnc1)c1ccccc12 , the logged TGI turned out to be 28.8

Record summary for CC1C(OS(=O)(=O)c2ccc3[nH]c(=S)sc3c2)CC2C3(C)CCC2(C(C)C(=O)O)C(O)C13 (centres undefined) : reported TGI = 58

----------
System: HL-60(TB) leukemia
assay_text: NCI tumour cell line growth inhibition, 48 h; in the data active = GI50 below about 0.43 µM; inactive = the rest
// classify into active, inactive

Reference set (2 entries):
CC(=O)O[C@H]1C[C@@H]2[C@@]3(C)CC[C@H]4C[C@@]4(C)[C@@H]3CC[C@@]2(C)C2=CCC3=C(COC3=O)[C@]21C : inactive
O=C(/C=C(\[O-])c1ccccc1)CCCCCCC(=O)/C=C(\[O-])c1ccccc1.O=C(/C=C(\[O-])c1ccccc1)CCCCCCC(=O)/C=C(\[O-])c1ccccc1.O=C(/C=C(\[O-])c1ccccc1)CCCCCCC(=O)/C=C(\[O-])c1ccccc1.[Y+3].[Y+3] : inactive

Q: // return assay outcome for COC(=O)C(C)NP(=O)(OCc1cccc(Cn2cnc3c(N)ncnc32)c1)Oc1ccccc1 (stereo not drawn)
A: inactive

Q: Which result was noted for this molecule in the test: CC[C@]12C=CCN3CC[C@@]4(c5ccc(OC)cc5N(C)[C@H]4[C@@](O)(C(=O)OC)[C@@H]1OC(=O)CCCN1CCN(CCCC(=O)O[C@@H]4[C@]5(CC)C=CCN6CC[C@@]7(c8ccc(OC)cc8N(C)[C@H]7[C@@]4(O)C(=O)OC)[C@@H]65)CC1)[C@@H]32
A: inactive

Q: What classification did COc1cc2c3c(n(CCCN)c(=O)c2cc1OC)-c1ccc(N)cc1C3=O end up with in this test?
A: inactive

Q: Each molecule tested received a call. Report the one for O=C(CCN1CCOCC1)Nc1ccc(Cn2nnc3c2C(=O)c2nnn(Cc4ccc(NC(=O)CCN5CCOCC5)cc4)c2C3=O)cc1 .
A: inactive

Q: Would you mind telling me which call this test gave COc1cc(NC(=O)COc2ccccc2)c(C(N)=O)cc1OC ?
A: active
